Values were extracted from patent US7763644B2.

- study target: LBS (Rattus norvegicus, UniProt Q02563)
- Sequence (Q02563 whole entry): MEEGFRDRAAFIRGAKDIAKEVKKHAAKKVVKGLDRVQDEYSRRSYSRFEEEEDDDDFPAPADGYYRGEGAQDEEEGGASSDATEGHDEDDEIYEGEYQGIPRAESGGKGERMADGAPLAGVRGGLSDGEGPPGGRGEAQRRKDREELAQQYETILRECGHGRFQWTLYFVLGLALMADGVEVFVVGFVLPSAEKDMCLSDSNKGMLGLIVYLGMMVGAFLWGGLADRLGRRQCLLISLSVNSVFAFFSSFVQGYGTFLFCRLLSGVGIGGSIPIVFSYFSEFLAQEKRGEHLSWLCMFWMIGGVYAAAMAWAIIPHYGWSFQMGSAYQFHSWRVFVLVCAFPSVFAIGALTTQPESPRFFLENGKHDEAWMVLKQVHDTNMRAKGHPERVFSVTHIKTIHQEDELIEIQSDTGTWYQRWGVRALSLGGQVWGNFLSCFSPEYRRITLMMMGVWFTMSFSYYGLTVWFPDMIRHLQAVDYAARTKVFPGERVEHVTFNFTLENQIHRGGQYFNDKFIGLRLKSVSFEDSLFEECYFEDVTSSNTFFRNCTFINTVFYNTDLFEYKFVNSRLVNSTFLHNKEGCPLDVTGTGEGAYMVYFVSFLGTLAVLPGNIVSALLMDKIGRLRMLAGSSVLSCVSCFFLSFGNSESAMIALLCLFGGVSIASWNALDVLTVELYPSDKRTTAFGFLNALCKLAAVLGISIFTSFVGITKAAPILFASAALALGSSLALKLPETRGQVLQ
assay endpoint: Ki (nM)

| molecule | assay endpoint | recorded number |
| --- | --- | --- |
| [N-]=[N+]=Nc1c(F)ccc(C2CC(=O)N(Cn3ccnc3)C2)c1F (single isomer, unassigned; (+)) | Ki | 31.6 |
